Target: VA Peptide (fluorescence polarization) (FITC on the C-terminal lysine)
Assay: fluorescence polarization, FITC peptide titrated with protein
attribute-measured: Kd (nM)
Write the number in nM without appending the unit.

// recorded Kd for PS852 (designed binder, Variant of PS557) MPTAASATESAIEDTPAPARPEVDGRTKPKHQPRYHVVLWDDDDHTYQYVVVMLRSLFGHPPERGYRLAKEMDTQGRVIVLTTTREHAELKRDQIHAFGYDRLLARSKGSMKASIEAEE : 142

response.value for PS833 (designed binder, Variant of PS557) MPTAASATESAIEDTPAPARPVVDGRTKPKRQPRYHVVLWDDDDHTYQYVVVMLQSLFGHPPERGYRLAKEMDTQGRVIVLTTTREHAELKRDQIHAFGYDRLLARSKGSMKASIEAEE (field: Kd) = 312
